Exercise: for every item that follows, state its recorded cAMP release, % activity with respect to control, at 10 µM.
molecular target: human GLP-1 receptor (human, UniProt P43220 24-463); assay: cell-based or functional assay
Where no end group is shown, it is not given here. [ ]: non-standard residue; d: D form. Bip(2'-Et-4'-OMe) = CCc1cc(OC)ccc1-c1ccc(C[C@H](N)C(=O)O)cc1; αMePhe(2-F) = C[C@](N)(Cc1ccccc1F)C(=O)O; αMeBip(OMe) = alpha-methylated Bip(OMe); hhPhe = N[C@@H](CCCc1ccccc1)C(=O)O; αMeAPPA = not defined here; Ac3c = NC1(C(=O)O)CC1; Aib = CC(C)(N)C(=O)O

The following binders have reported results that may help.
{"binder": "VH[Ac3c]EGTFTSD[αMeBip(OMe)][hhPhe] (not fully specified (C-terminus)) [Seq. ID. No. 16]", "reported": "99 % of control"}
{"binder": "VHSQGT[αMePhe(2-F)]TSD[Bip(2'-Et-4'-OMe)][αMeAPPA] (not fully specified (C-terminus); printed as VHSQGT-(αMe-2FPhe)-TSD-Bip(OMe)-(αMe-APPA); reading uncertain) [Seq. ID. No. 91]", "reported": "99 % of control"}

// below: cAMP release, % activity with respect to control, at 10 µM requested for another binder
Prompt: Report cAMP release, % activity with respect to control, at 10 µM, nothing else, for this binder: VH[Aib]EGTFTSD[Bip(2'-Et-4'-OMe)][αMeAPPA] (not fully specified (C-terminus); printed as VH-Aib-EGTFTSD-Bip(OMe)-(αMe-APPA); reading uncertain) [Seq. ID. No. 89]
Response: 99 % of control
